PROCEDURE TEXT: recombinant barcode read abundance after kanamycin selection (control-corrected) (log10(CPM+1)); higher = more efficient recombination; sequences stand for … in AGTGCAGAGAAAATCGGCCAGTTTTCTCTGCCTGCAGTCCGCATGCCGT…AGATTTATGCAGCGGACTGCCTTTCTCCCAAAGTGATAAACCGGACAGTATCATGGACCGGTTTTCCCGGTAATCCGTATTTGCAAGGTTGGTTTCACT; site = the 11-nt target
Threshold check on recombinant barcode read abundance (log10): at or above 0.3 gives class 1, strictly below gives class 0.

Some solved cases for reference:
CTATGTGCTTGGGTTCTAACCTGTTGCTT (site CTATGTGCTAG): class 1
GGCGGAGCTTGGGTTCTAACCTGTTGCCG (site GGCGGAGCTCG): class 1
GGCGGCTCTTGGGTTCTAACCTGTTGCCT (site GGCGGCTCTAG): class 1
TCTCCGCCTTGGGTTCTAACCTGTTGCCT (site TCTCCGCCTAG): class 1
GAAGCCGCTTGGGTTCTAACCTGTTGCCT (site GAAGGCGCTAG): class 0

State whether the measured recombinant barcode read abundance (log10) reaches 0.3, counting equality as reaching it, for TTAGTTCCTTGGGTTCTAACCTGTTGCCT (site TTAGTACCTAG) class 0

State whether the measured recombinant barcode read abundance (log10) reaches 0.3, counting equality as reaching it, for CAGCACCCTTGGGTTCTAACCTGTTGCGG (site CGGTACCCTCC) class 0

State whether the measured recombinant barcode read abundance (log10) reaches 0.3, counting equality as reaching it, for CCGCCCTCTTGGGTTCTAACCTGTTGCTT (site CAGCCCTCTTA) class 1

State whether the measured recombinant barcode read abundance (log10) reaches 0.3, counting equality as reaching it, for AGACCATCTTGGGTTCTAACCTGTTGCCT (site AGACCATCTAG) class 1

---

Exercise: for every item that follows, state its recorded recombinant UMI read abundance (log10).
PROCEDURE TEXT: recombinant UMI read abundance after kanamycin selection (control-corrected) (log10(CPM+1)); higher = more efficient recombination; extreme values may be limits of the assay; sequences stand for … in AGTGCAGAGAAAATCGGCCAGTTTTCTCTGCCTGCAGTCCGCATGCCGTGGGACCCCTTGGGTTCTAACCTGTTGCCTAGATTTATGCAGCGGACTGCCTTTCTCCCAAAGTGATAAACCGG…AGGTTGGTTTCACT; site = the 11-nt donor
Answers are plain numbers.

Please review the entries below; each comes with its answer.
TGTTAGACATGGACCGGTTTTCCCGGTAATCCGTATTTGAG (site AGTTAGACTCT): 0.103
CTCAGACCATGGACCGGTTTTCCCGGTAATCCGTATTTGCG (site CTCAGACCTCG): 0
GCACGAACATGGACCGGTTTTCCCGGTAATCCGTATTTGTC (site ACACGAACTGA): 1.48
CAAGCGCCATGGACCGGTTTTCCCGGTAATCCGTATTTGTG (site CAACCGCCTCA): 0.0221
TGGTGTACATGGACCGGTTTTCCCGGTAATCCGTATTTGAA (site TGGTGTACTTT): 0.131
ACACAGCCATGGACCGGTTTTCCCGGTAATCCGTATTTGAC (site ACACATCCTGT): 0.0116
GATAGATCATGGACCGGTTTTCCCGGTAATCCGTATTTGAG (site GATAGATCTCT): 1.83
GCAGTGACATGGACCGGTTTTCCCGGTAATCCGTATTTGCG (site GCAGTGACTCG): 2.18

Below are some sequences; for each one, tell me its recombinant UMI read abundance (log10).
1. TCCTATTCATGGACCGGTTTTCCCGGTAATCCGTATTTGCC (site TCCTATTCTGG)
2. CCTGTAACATGGACCGGTTTTCCCGGTAATCCGTATTTGCA (site CCTGTAACTTG)
3. TCATATTCATGGACCGGTTTTCCCGGTAATCCGTATTTGCA (site TCATATTCTTG)
4. CGAGCATCATGGACCGGTTTTCCCGGTAATCCGTATTTGCT (site CGAGCATCTAG)
5. TAATGCTCATGGACCGGTTTTCCCGGTAATCCGTATTTGAA (site CAATGCTCTTT)
6. TAATGAGCATGGACCGGTTTTCCCGGTAATCCGTATTTGGG (site TTATGAGCTCC)
7. AGGATCCCATGGACCGGTTTTCCCGGTAATCCGTATTTGTG (site AGGATCCCTCA)

1: 0; 2: 0; 3: 0.476; 4: 1.79; 5: 0.61; 6: 0.0156; 7: 0.753

Below are some sequences; for each one, tell me its recombinant UMI read abundance (log10).
1. TTAGGTACATGGACCGGTTTTCCCGGTAATCCGTATTTGAC (site CTAGGTACTGT)
2. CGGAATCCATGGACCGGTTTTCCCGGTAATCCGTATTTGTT (site CGGGATCCTAA)
3. ATACGGACATGGACCGGTTTTCCCGGTAATCCGTATTTGAA (site ATACGGACTTT)

1. 0
2. 0.0888
3. 1.39

---

PROCEDURE TEXT: recombinant barcode read abundance after kanamycin selection (control-corrected) (log10(CPM+1)); higher = more efficient recombination; sequences stand for … in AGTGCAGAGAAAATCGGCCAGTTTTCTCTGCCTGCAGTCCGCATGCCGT…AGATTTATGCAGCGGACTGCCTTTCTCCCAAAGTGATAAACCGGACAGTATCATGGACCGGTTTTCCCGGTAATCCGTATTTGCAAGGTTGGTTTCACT; site = the 11-nt target
ASSAY READOUT: recombinant barcode read abundance (log10)
Numbers only.

TCGCGTCCTTGGGTTCTAACCTGTTGCAG (site TCACGTCCTCT): 0.231
TCCTACCCTTGGGTTCTAACCTGTTGCCT (site TCCTACCCTAG): 1.36
CTAACGACTTGGGTTCTAACCTGTTGCGG (site CTAGCGACTCC): 0.158
ACGTGCTCTTGGGTTCTAACCTGTTGCCT (site AAGTGCTCTAG): 0.503

Next sequence, recombinant barcode read abundance (log10) to be filled in.
For CCGTCCTCTTGGGTTCTAACCTGTTGCTG (site CAGTCCTCTCA) the sequence record lists recombinant barcode read abundance (log10) as 0.0234

---

PROCEDURE TEXT: recombinant barcode read abundance after kanamycin selection (control-corrected) (log10(CPM+1)); higher = more efficient recombination; sequences stand for … in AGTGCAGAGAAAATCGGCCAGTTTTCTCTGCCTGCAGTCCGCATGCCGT…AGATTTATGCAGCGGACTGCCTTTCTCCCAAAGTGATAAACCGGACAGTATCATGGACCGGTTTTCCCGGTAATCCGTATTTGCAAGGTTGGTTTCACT; site = the 11-nt target
Threshold check on recombinant barcode read abundance (log10): at or above 0.2 gives MET, strictly below gives NOT MET.

CCTGCGGCTTGGGTTCTAACCTGTTGCCT (site CCTGCGACTAG): NOT MET

State whether the measured recombinant barcode read abundance (log10) reaches 0.2, counting equality as reaching it, for TAGAACTCTTGGGTTCTAACCTGTTGCCA (site TAGAACTCTTG) NOT MET

---

PROCEDURE TEXT: recombinant UMI read abundance after kanamycin selection (control-corrected) (log10(CPM+1)); higher = more efficient recombination; extreme values may be limits of the assay; sequences stand for … in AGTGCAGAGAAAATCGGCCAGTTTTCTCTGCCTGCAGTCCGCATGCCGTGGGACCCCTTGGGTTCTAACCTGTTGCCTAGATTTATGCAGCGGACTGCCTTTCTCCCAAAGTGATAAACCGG…AGGTTGGTTTCACT; site = the 11-nt donor
Exercise: for every item that follows, state its recorded recombinant UMI read abundance (log10).
Numbers only.

Please review the entries below; each comes with its answer.
ACCAGCCCATGGACCGGTTTTCCCGGTAATCCGTATTTGAT (site ACCAGCCCTAT): 0.0092
AGGTTCCCATGGACCGGTTTTCCCGGTAATCCGTATTTGCG (site AGGTTCCCTCA): 0.0159
CCCTTCGCATGGACCGGTTTTCCCGGTAATCCGTATTTGGG (site CCCTTCTCTCC): 0.0112

Below are some sequences; for each one, tell me its recombinant UMI read abundance (log10).
1. TGACAACCATGGACCGGTTTTCCCGGTAATCCGTATTTGCC (site TGACAACCTGG)
2. GGTGTTCCATGGACCGGTTTTCCCGGTAATCCGTATTTGGT (site GCTGTTCCTAC)
3. TAGGTTGCATGGACCGGTTTTCCCGGTAATCCGTATTTGGT (site TAGGTTGCTAC)
4. CTTGTGTCATGGACCGGTTTTCCCGGTAATCCGTATTTGAC (site CTTGTGTCTGT)

[0, 0.0204, 1.27, 0.301]

Below are some sequences; for each one, tell me its recombinant UMI read abundance (log10).
1. GGCGTGGCATGGACCGGTTTTCCCGGTAATCCGTATTTGGT (site GGAGTGGCTAC)
2. GATTGTACATGGACCGGTTTTCCCGGTAATCCGTATTTGGG (site GATTGTACTCC)

[0.00572, 0.0205]
